experimentalProtocol: Tmax in mouse at 4 mg/kg, po
Assay type: ADME, organism-based
Parameters: dose 4 mg/kg, route oral
conditionSummary: in vivo
endpointLabel: Tmax (h)
Enter your answer as a number in h; do not include the unit.

Tmax recorded for this molecule, O=C(Nc1ccc2c(c1)B(O)OC2)c1c(C(F)(F)F)ccc(Cl)c1F , is 4

----------
System: PBMC
experimentalProtocol: Antiinflammatory activity in human PBMC assessed as inhibition of LPS-induced IL-6 release incubated for 15 mins prior to LPS-challenge measured after 24 hrs by HTRF assay
Type: functional, cell-based
Task for the reader: assign each of the following molecules its reported IC50.
Enter your answer as a number in µM; do not include the unit.

IC50 recorded for this molecule, O=C(Nc1ccc2c(c1)B(O)OC2)c1c(C(F)(F)F)ccc(Cl)c1F , is 0.32

IC50 recorded for this molecule, O=C(Nc1ccc2c(c1)B(O)OC2)c1cc(F)ccc1C(F)(F)F , is 8.2

IC50 recorded for this molecule, O=C(Nc1ccc2c(c1)B(O)OC2)c1ccc(F)cc1C(F)(F)F , is 5.6
